Below, each entry is listed with its recorded active PAI-1 by uPA-PAI-1 complex ELISA, hPAI-1 Standard, IC50.
Biological target: human PAI-1 (human, UniProt P05121 24-402)
Sequence (P05121 24-402 limits assumed): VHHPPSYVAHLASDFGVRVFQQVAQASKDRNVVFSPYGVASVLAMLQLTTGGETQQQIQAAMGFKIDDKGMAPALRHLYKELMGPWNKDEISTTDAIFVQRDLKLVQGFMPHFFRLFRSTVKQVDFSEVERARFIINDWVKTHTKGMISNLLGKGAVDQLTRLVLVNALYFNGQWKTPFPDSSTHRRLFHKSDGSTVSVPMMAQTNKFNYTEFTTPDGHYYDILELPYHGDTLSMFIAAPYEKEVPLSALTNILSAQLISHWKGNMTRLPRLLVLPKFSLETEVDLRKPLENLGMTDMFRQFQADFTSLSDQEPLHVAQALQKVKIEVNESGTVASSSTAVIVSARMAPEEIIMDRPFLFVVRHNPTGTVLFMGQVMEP
Assay: cell-based or functional assay
Unit nM implied. Number only.

-- ask Consider the binder A44-hv12 (antibody, V domains shown, humanized A44, HEK293; constant regions as for A44-hv1; also called LC4 x HC3; variant 12) VH: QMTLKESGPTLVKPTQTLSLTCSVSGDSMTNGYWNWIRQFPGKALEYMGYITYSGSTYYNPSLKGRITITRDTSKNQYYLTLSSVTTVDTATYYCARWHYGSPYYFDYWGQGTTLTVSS VL: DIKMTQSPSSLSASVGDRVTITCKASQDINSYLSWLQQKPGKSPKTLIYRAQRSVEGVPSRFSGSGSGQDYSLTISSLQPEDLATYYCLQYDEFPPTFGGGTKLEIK and give its measured active PAI-1 by uPA-PAI-1 complex ELISA, hPAI-1 Standard, IC50.
-- reply 0.114

-- ask Consider the binder A44-hv13 (antibody, V domains shown, humanized A44, HEK293; constant regions as for A44-hv1; also called LC2 x HC5b; variant 13) VH: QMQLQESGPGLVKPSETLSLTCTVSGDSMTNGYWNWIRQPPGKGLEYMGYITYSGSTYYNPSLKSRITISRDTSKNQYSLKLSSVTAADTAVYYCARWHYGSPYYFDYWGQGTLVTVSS VL: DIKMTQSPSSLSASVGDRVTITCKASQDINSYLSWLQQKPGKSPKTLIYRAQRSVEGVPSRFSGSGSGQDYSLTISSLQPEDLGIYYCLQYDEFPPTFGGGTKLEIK and give its measured active PAI-1 by uPA-PAI-1 complex ELISA, hPAI-1 Standard, IC50.
-- reply 0.166

-- ask Consider the binder A44-hv14 (antibody, V domains shown, humanized A44, HEK293; constant regions as for A44-hv1; also called LC4 x HC5b; variant 14) VH: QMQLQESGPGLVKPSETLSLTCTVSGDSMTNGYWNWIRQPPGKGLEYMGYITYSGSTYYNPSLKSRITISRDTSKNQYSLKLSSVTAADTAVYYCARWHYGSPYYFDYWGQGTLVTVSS VL: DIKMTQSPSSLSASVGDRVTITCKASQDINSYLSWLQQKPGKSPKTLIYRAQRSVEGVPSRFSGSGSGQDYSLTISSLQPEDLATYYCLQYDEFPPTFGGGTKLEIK and give its measured active PAI-1 by uPA-PAI-1 complex ELISA, hPAI-1 Standard, IC50.
-- reply 0.0563

-- ask Consider the binder A44-hv11 (antibody, V domains shown, humanized A44, HEK293; compared with a human IgG1 isotype control; constant regions as for A44-hv1; also called A44V11; A44v11) VH: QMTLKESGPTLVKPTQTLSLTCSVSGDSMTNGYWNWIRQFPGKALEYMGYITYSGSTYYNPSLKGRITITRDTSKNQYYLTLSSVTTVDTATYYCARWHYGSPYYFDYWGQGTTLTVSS VL: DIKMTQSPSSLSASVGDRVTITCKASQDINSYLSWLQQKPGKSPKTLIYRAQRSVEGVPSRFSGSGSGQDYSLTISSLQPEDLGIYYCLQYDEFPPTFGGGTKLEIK and give its measured active PAI-1 by uPA-PAI-1 complex ELISA, hPAI-1 Standard, IC50.
-- reply 0.131
